- SUBJECT_OF_TEST: FGF14:Nav1.6 C-tail complex (Homo sapiens, UniProt Q92915+Q9UQD0)
- Construct: polymerase chain reaction (PCR) amplification of the FGF14 open reading frame (nt 1–855); C-terminal fragment of Nav1.6 (amino acids 1763–1976) fused with CD4ΔC-tail (amino acids 1–395); expressed in transfected cells
- Sequence (Q92915 1-252 isoform Q92915-2): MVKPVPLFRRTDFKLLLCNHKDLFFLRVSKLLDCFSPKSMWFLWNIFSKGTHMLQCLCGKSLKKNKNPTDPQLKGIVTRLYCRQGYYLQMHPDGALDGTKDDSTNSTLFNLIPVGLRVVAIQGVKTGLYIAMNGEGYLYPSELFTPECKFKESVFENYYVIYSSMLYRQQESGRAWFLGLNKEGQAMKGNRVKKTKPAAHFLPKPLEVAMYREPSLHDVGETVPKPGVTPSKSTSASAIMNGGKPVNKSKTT
- Sequence (Q9UQD0 1763-1976 limits assumed): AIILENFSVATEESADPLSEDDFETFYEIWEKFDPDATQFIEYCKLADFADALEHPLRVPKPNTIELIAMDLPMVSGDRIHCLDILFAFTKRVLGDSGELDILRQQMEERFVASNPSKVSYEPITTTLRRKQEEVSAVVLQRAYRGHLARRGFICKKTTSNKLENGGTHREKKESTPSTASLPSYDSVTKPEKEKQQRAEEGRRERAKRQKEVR
- TEST_METHOD_NOTES: Split-luciferase complementation assay (LCA) in Clone V double stable HEK293 cells
- Format: cell-based
- EXPERIMENTAL_SETUP: CC_NCI screening; LCA, biological replicate Set 2; normalized to on-plate 0.3% DMSO controls
Structures can show the parent of a compound that is named as a salt. *1 amine or outer side, *2 acyl side, *3 side chain or, on linkers, in order; H or OH if unused. Where a SMILES comes first, the peptide text is derived from it. Bridges are numbered along the chain shown (N, C = ends). Roman numbers before positions name the chains, in order. [ ]: non-standard residue; d: D form. Actinocin(9to1) = Cc1c2oc3c(C)ccc(C(=O)[*:1])c3nc-2c(C(=O)[*:2])c(N)c1=O; NMeV = CN[C@H](C(=O)O)C(C)C; Sar = CNCC(=O)O
Hi there, I'd appreciate the recorded Split Luciferase Assay Z-score Set 2 for every entry that follows.

I'd like to know its Split Luciferase Assay Z-score Set 2. The compound in question is O=C(/C=C/c1cccc(S(=O)(=O)Nc2ccccc2)c1)NO [PXD101]
0.50

Also check O=C1c2c(O)ccc(O)c2C(=O)c2c(NCCNCCO)ccc(NCCNCCO)c21 [Mitoxantrone]
-6.87

Can you check CO[C@H]1C[C@@H]2CC[C@@H](C)[C@@](O)(O2)C(=O)C(=O)N2CCCC[C@H]2C(=O)O[C@H]([C@H](C)C[C@@H]2CC[C@@H](OC(=O)C(C)(CO)CO)[C@H](OC)C2)CC(=O)[C@H](C)/C=C(\C)[C@@H](O)[C@@H](OC)C(=O)[C@H](C)C[C@H](C)/C=C/C=C/C=C/1C [Temsirolimus] next?
-3.06

Clc1ccc(Nc2nnc(Cc3ccncc3)c3ccccc23)cc1 [VATALANIB] ?
-2.47

For Cc1c2oc3c(C)ccc(C(=O)N[C@@H]4C(=O)N[C@H](C(C)C)C(=O)N5CCC[C@H]5C(=O)N(C)CC(=O)N(C)[C@@H](C(C)C)C(=O)O[C@@H]4C)c3nc-2c(C(=O)N[C@@H]2C(=O)N[C@H](C(C)C)C(=O)N3CCC[C@H]3C(=O)N(C)CC(=O)N(C)[C@@H](C(C)C)C(=O)O[C@@H]2C)c(N)c1=O [Dactinomycin] (I: T[dV]P[Sar][NMeV] / II: T[dV]P[Sar][NMeV]; ester I:1-I:C, II:1-II:C; linker I:N-II:N via Actinocin(9to1)) then?
-2.80

Do the same for COc1cc(Nc2c(C#N)cnc3cc(OCCCN4CCN(C)CC4)c(OC)cc23)c(Cl)cc1Cl [BOSUTINIB] please
-0.43

Param item: CN(N=O)C(=O)N[C@@H](C=O)[C@@H](O)[C@H](O)[C@H](O)CO [Streptozocin]
2.02

Item: CO[C@H]1C[C@@H]2CC[C@@H](C)[C@@](O)(O2)C(=O)C(=O)N2CCCC[C@H]2C(=O)O[C@H]([C@H](C)C[C@@H]2CC[C@@H](OC(=O)C(C)(CO)CO)[C@H](OC)C2)CC(=O)[C@H](C)/C=C(\C)[C@@H](O)[C@@H](OC)C(=O)[C@H](C)C[C@H](C)/C=C/C=C/C=C/1C [TEMSIROLIMUS]
-1.36

And what about the compound c1cc(CN2CCCNCCNCCCNCC2)ccc1CN1CCCNCCNCCCNCC1 [Plerixafor] ?
0.92

Also need CNC(=O)c1ccccc1Sc1ccc2c(/C=C/c3ccccn3)n[nH]c2c1 [AXITINIB] , thanks.
-0.69

Now the compound CS(=O)(=O)CCNCc1ccc(-c2ccc3ncnc(Nc4ccc(OCc5cccc(F)c5)c(Cl)c4)c3c2)o1 [LAPATINIB]
-0.35

What do you get for O=C(c1ccc(OCCN2CCCCC2)cc1)c1c(-c2ccc(O)cc2)sc2cc(O)ccc12 [Raloxifene] ?
-3.90

Now consider NC(=O)c1ccc(-c2nc(-c3ccc4c(c3)OCO4)c(-c3ccccn3)[nH]2)cc1 [SB 431542] .
1.17

Likewise for O=c1cc(-c2cccc3c2Sc2ccccc2S3)oc(N2CCOCC2)c1 [KU-55933] ?
-1.53

Repeat for the following compound: OC[C@H]1O[C@@H](n2cnc3c2NC=NC[C@H]3O)C[C@@H]1O [Pentostatin]
3.80

Now consider O=S(=O)(NCCNC/C=C/c1ccc(Br)cc1)c1cccc2cnccc12 [H-89, reference compound] .
-6.70

Here is the next compound: CC[C@@]1(O)C(=O)OCc2c1cc1n(c2=O)Cc2cc3c(CN(C)C)c(O)ccc3nc2-1 [Topotecan hydrochloride]
-3.40

Also COC(=O)C[C@](O)(CCCC(C)(C)O)C(=O)O[C@@H]1C(OC)=C[C@]23CCCN2CCc2cc4c(cc2[C@H]13)OCO4 [Omacetaxine mepesuccinate] , if possible.
-6.53

What do you have for O=P(O)(O)C(O)(Cn1ccnc1)P(=O)(O)O [Zoledronic acid] ?
1.60

Likewise for Cn1cnc2c(F)c(Nc3ccc(Br)cc3Cl)c(C(=O)NOCCO)cc21 [AZD 6244] ?
-0.77

Lookup COc1cc2c(Nc3ccc(Br)cc3F)ncnc2cc1OCC1CCN(C)CC1 [Vandetanib]
1.26

Consider next the compound CNC(=O)c1cc(Oc2ccc(NC(=O)Nc3ccc(Cl)c(C(F)(F)F)c3)cc2)ccn1 [Sorafenib, reference compound] in the same way.
-6.87

COc1cc2c(cc1OC)[C@@H]1C(=O)c3ccc4c(c3O[C@@H]1CO2)C=CC(C)(C)O4 [DEGUELIN] ?
-6.02

CCc1cc(Nc2nccc(-c3c(-c4ccc(OC)c(C(=O)Nc5c(F)cccc5F)c4)nc4ccccn34)n2)c(OC)cc1N1CCC(N2CCN(S(C)(=O)=O)CC2)CC1 [GSK1904529A] ?
-0.60

Please answer likewise for Cc1nc(Nc2ncc(C(=O)Nc3c(C)cccc3Cl)s2)cc(N2CCN(CCO)CC2)n1 [Dasatinib]
-1.70

Also Cc1ccc(-c2cc(C(F)(F)F)nn2-c2ccc(S(N)(=O)=O)cc2)cc1 [Celecoxib] , if possible.
-4.50
